Reference source for all entries: patent US20230046018A1

- EXPERIMENT: In vivo pharmacokinetics in mice
- CONDITION DESCRIPTION: mouse, plasma; intravenous administration 2 mg/kg, female CD-1 mice; read-out: Clearance rate Cl

[
  {
    "MOLECULE": "Cc1ccc(NC(=O)c2ccnc(C(F)(F)F)c2)cc1-c1cc(OCCO)nc([C@]23COC[C@H]2C3)c1 [Compound 16B]",
    "clearance, mL/min/kg": 25.8
  }
]

* * *

- Tested on: HCT-116(Kras^G13D)
- EXPERIMENT: HCT-116 (Kras^G13D) antiproliferative activity (CellTiter Glo)
- Type: cell-based
- CONDITION DESCRIPTION: Homo sapiens, 72 h, HCT-116 (Kras^G13D) cells, three days
pIC50: −log10 of the molar value.
MEASURED PROPERTY: pIC50

[
  {
    "COMPOUND": "Cc1ccc(NC(=O)c2ccnc(C(F)(F)F)c2)cc1-c1cc(N(C)CCO)nc(C23CCOCC2C3)c1 (centres unmarked)",
    "TEST RESULT": 5.64
  },
  {
    "COMPOUND": "Cc1ccc(NC(=O)c2ccnc(C(F)(F)F)c2)cc1-c1cc(OC[C@H](O)CO)nc(C23CCOCC2C3)c1 (some centres unmarked)",
    "TEST RESULT": 6.10
  },
  {
    "COMPOUND": "Cc1ccc(NC(=O)c2ccnc(C(F)(F)F)c2)cc1-c1cc(NCCO)nc(C23CCOCC2C3)c1 (centres unmarked)",
    "TEST RESULT": 5.64
  },
  {
    "COMPOUND": "Cc1ccc(NC(=O)c2ccnc(C(F)(F)F)c2)cc1-c1cc(OCCO)nc([C@]23COC[C@H]2C3)c1 [Compound 16B]",
    "TEST RESULT": 5.96
  },
  {
    "COMPOUND": "Cc1ccc(NC(=O)c2ccnc(C(F)(F)F)c2)cc1-c1cc(OCCO)nc(C23CCOCC2(C#N)C3)c1 (centres unmarked)",
    "TEST RESULT": 6.40
  },
  {
    "COMPOUND": "COC[C@@H](O)COc1cc(-c2cc(NC(=O)c3ccnc(C(F)(F)F)c3)ccc2C)cc(C23CCOCC2C3)n1 (some centres unmarked)",
    "TEST RESULT": 5.28
  },
  {
    "COMPOUND": "Cc1ccc(NC(=O)c2ccnc(C(F)(F)F)c2)cc1-c1cc(N2CC(O)C2)nc(C23CCOCC2C3)c1 (centres unmarked)",
    "TEST RESULT": 6.70
  },
  {
    "COMPOUND": "Cc1ccc(NC(=O)c2ccnc(C(F)(F)F)c2)cc1-c1cc(C23CCOCC2C3)cc(OCCO)n1 (centres unmarked)",
    "TEST RESULT": 5.96
  },
  {
    "COMPOUND": "Cc1ccc(NC(=O)c2ccnc(C(F)(F)F)c2)cc1-c1cc(OCCO)nc(C23COCC2C3)c1 (centres unmarked)",
    "TEST RESULT": 5.66
  },
  {
    "COMPOUND": "Cc1ccc(NC(=O)c2ccnc(C(F)(F)F)c2)cc1-c1cc(OCC(C)(C)O)nc(C23CCOCC2C3)c1 (centres unmarked)",
    "TEST RESULT": 6.05
  },
  {
    "COMPOUND": "Cc1ccc(NC(=O)c2ccnc(C(F)(F)F)c2)cc1-c1cc(OCCO)nc(C23CCOCC2C3(F)F)c1 (centres unmarked)",
    "TEST RESULT": 6.10
  },
  {
    "COMPOUND": "Cc1ccc(NC(=O)c2ccnc(C(F)(F)F)c2)cc1-c1cc(OCCO)nc(C23CCOCC2C3)c1 (single isomer, unassigned)",
    "TEST RESULT": 6.22
  },
  {
    "COMPOUND": "Cc1ccc(NC(=O)c2ccnc(C(C)(F)F)c2)cc1-c1cc(OCCO)nc(C23CCOCC2C3)c1 (centres unmarked)",
    "TEST RESULT": 6.22
  },
  {
    "COMPOUND": "Cc1ccc(NC(=O)c2ccnc(C(F)F)c2)cc1-c1cc(OCCO)nc(C23CCOCC2C3)c1 (centres unmarked)",
    "TEST RESULT": 5.59
  }
]
